Observed Ki for Histamine H2 receptor (Homo sapiens), reported per entry below.
Answers are plain numbers, in nM.

CC1=NC2(CCN(C)CC2)C(=O)N(c2c(C)cccc2C)C1=O
823

# next compound below
Lookup: Return Ki for the following compound: Cc1cccc(C)c1N1C(=O)[C@H](CC2CNc3ccccc32)NC2(CCN(C)CC2)C1=O (some centres not stated)
Found: 546

---

Give measured pKi for each item. Keep answers brief.
target-entity: Mu-type opioid receptor (Homo sapiens, UniProt P35372)
Sequence (P35372 whole entry): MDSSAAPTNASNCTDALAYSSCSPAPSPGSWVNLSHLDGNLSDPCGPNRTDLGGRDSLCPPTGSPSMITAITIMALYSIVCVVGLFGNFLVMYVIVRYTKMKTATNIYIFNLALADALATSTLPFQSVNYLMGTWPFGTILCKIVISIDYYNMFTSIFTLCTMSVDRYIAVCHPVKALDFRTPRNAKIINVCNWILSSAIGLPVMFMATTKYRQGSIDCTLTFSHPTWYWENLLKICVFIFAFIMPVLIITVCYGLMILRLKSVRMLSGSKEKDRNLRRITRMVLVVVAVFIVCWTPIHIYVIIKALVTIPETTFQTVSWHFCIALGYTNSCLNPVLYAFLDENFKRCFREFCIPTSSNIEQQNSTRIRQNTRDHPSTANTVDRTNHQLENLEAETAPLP
Numbers only, as −log10 of the molar value.

Cc1cccc(C)c1N1C(=O)CNC2(CCN(C)CC2)C1=O
5.00
Cc1cccc(C)c1N1C(=O)[C@H](CC2CNc3ccccc32)NC2(CCN(C)CC2)C1=O (stereo partly drawn)
6.00

Lookup: Specify pKi for Cc1cccc(C)c1N1C(=O)[C@H](CO)NC2(CCN(C)CC2)C1=O , system Mu-type opioid receptor (Homo sapiens, UniProt P35372).
Found: 5.79

---

target-entity: D(4) dopamine receptor (Homo sapiens)
Sequence (P21917 whole entry): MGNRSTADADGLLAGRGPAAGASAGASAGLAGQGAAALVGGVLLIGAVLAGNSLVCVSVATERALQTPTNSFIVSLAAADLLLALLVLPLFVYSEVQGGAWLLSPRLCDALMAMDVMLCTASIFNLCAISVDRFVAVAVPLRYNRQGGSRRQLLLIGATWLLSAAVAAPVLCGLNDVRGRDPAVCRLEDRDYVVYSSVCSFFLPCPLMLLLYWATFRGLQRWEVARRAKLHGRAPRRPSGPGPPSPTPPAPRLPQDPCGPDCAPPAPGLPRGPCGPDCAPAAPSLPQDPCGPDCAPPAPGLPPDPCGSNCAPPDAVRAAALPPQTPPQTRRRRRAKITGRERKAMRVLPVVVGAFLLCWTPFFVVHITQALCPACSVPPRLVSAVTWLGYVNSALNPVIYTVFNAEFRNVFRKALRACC
metric-name: pKi
Give bare numbers, as −log10 of the molar value.

Lookup: Identify measured pKi corresponding to CC1=NC2(CCN(C)CC2)C(=O)N(c2c(C)cccc2C)C1=O
Found: 5.89
